- System tested: Progesterone receptor (Homo sapiens) (UniProt P06401)
- Sequence (P06401 whole entry, looked up): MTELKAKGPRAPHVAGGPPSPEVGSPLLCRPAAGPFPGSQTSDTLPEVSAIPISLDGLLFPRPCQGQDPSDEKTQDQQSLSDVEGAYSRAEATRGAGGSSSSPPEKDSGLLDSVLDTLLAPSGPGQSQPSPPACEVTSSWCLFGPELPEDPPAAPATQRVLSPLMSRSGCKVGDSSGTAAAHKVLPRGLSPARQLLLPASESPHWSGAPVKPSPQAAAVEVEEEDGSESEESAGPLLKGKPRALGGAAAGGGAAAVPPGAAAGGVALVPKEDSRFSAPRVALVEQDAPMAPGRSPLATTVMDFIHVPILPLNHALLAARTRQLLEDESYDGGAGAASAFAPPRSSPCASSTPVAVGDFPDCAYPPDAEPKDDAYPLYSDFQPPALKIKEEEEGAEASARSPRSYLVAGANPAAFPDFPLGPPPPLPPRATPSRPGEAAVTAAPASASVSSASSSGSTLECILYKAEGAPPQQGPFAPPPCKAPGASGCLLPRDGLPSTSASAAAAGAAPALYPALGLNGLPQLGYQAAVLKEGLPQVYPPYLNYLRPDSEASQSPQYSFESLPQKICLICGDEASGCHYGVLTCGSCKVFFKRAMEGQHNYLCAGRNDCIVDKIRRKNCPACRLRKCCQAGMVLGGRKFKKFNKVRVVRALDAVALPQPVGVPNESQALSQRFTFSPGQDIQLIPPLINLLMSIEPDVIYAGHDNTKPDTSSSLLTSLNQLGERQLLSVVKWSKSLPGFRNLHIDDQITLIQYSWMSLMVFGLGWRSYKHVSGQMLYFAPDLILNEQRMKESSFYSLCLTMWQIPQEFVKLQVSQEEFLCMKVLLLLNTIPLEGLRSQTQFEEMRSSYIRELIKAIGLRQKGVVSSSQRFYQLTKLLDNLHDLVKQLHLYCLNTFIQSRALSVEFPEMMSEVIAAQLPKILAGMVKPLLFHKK
- Assay comment: qHTS assay to identify small molecule agonists of the progesterone receptor (PR) signaling pathway (AID 1346784); also: nearly all actives have a fitted effect of over 30% in size
- Settings: PR-UAS-bla HEK293T, beta-lactamase FRET ratio, 16 h; series mostly up to 92.4 µM
Records with an inconclusive call do not appear. Calls of active or inactive are those of the source. Calls follow the shape of the full dose curve.
Endpoint: outcome

Cc1ccc(C(C)C)cc2c(C)ccc1-2    inactive
O=C(/C=C/c1ccc(O)c(O)c1)O[C@@H](C(=O)O)[C@@H](OC(=O)/C=C/c1ccc(O)c(O)c1)C(=O)O    inactive
Cc1cc(-c2ccc(N=Nc3cc(S(=O)(=O)O)c4ccccc4c3N)c(C)c2)ccc1N=Nc1cc(S(=O)(=O)O)c2ccccc2c1N    inactive
Clc1nnc(Cl)c2ccccc12    inactive
CCN1C(=O)c2ccccc2C1Nc1ccc(OCCN2CCCCC2)cc1 (stereo unspecified)    inactive
CCC(C)(CCC(C)C)C(=O)[O][Sn]([CH3])([CH3])[O]C(=O)C(C)(CC)CCC(C)C (stereo unspecified)    inactive
C#Cc1ccc(-c2ccccc2F)cc1    inactive
Cc1cc(-n2nc3ccc(Cl)cc3n2)c(O)c(C(C)(C)C)c1    inactive
Nc1ccc(C(=O)O)c(O)c1    inactive
C=Cc1cccc(C)c1    inactive

# outcome of OC12N=C(c3ccccc3)SC1Cc1cc(Cl)ccc12 (stereo unspecified) = inactive
